# System: OVCAR-8 ovarian
# assayOverview: NCI tumour cell line growth inhibition, 48 h
Assign TGI to each entry below.

Example results:
COc1ccc(C2S/C(=C\c3cccc(OC)c3)C(=O)N2NC(=O)Cc2ccccc2)cc1 (stereo not given) ... > 100 µM
CC(N)Cc1ccc(Cl)cc1 (stereo not given) ... > 100 µM
C=C(C)[C@@H]1CC[C@]2(COCCCNCCCN)CC[C@]3(C)[C@H](CC[C@@H]4[C@@]5(C)CC[C@H](OCCCN)C(C)(C)[C@@H]5CC[C@]43C)[C@@H]12 ... 1.72 µM
c1ccc(C(c2cccc3c2ccc2ccccc23)C(c2ccccc2)c2cccc3c2ccc2ccccc23)cc1 (stereo not given) ... > 100 µM
COC12C=C/C(=C(/C(=O)OCCSc3ccnn3C)C(=O)CCCCCCCCC3(OC)C=C/C(=C(/C(=O)OCCSc4ccnn4C)C(=O)CCCCCCCC1)O3)O2 ... 6.79 µM

Go through the list and state TGI for each entry.
1. NC(=S)Nc1ccc2c(c1)oc1ccccc12
2. Cc1cc2c(c3nocc13)C(=O)c1ccccc1C2=O

Reply:
1: > 100 µM; 2: > 100 µM

Record TGI for all entries; do not skip any.
1. Cc1nc(N)sc1C(=O)Nc1ncn[nH]1
2. COC1=CC(=O)C(Br)=CC1=O
3. O=C1OCC(c2ccc(O)cc2)=C1c1cc(O)c(O)c(O)c1

Reply:
["> 100 µM", "65.8 µM", "> 100 µM"]

* * *

Assignment: determine reported TGI for the given molecules.
# Tested on: TK-10 renal
# assayOverview: NCI tumour cell line growth inhibition, 48 h
Answers are plain numbers, in µM.

CCN(CC)CCCOc1ccc2ncnc(Nc3ccc(Oc4cccc(C(F)(F)F)c4)c(Cl)c3)c2c1 ... 2.56

# ---- query molecule ----
Ask: Sample `CC(C)(CN1CCOCC1)C(=O)/C=C/c1ccc(/C=C/C(=O)C(C)(C)CN2CCOCC2)cc1` — what was its TGI?
Reply: 3.62

* * *

For each of the compounds below, state its TGI.
# Tested on: SNB-75 CNS
# assayOverview: NCI tumour cell line growth inhibition, 48 h

The following compounds have reported results that may help.
C/C(=N\NC(=O)CC#N)C(CN1CCCCC1)C(c1ccccc1)c1c(O)c2ccccc2oc1=O (stereo not given) ... > 100 µM
CC(CN(C)C)S(=O)(=O)c1ccc(-c2cnc(N)c(C(=O)Nc3ccccc3)n2)cc1 (stereo not given) ... 35.5 µM
O=C(/C=C/c1ccc2c(c1)OCO2)NCCc1ccco1 ... > 100 µM
Nc1ccc2nc(Nc3ccc(Cl)c(Cl)c3)cnc2c1 ... > 100 µM
O=C(O)C1CCN(Cc2oc(CO)cc(=O)c2O)C1 (stereo not given) ... > 100 µM

Below is a list of compounds. For each, state its recorded TGI.
1. C=C1C(=O)[C@]23C[C@H]1C[C@@H](O)[C@H]2[C@]1(COC3=O)[C@@H](OC(C)=O)CC[C@@](C)(COC(C)=O)[C@H]1C=O
2. Nc1nc(Nc2ccc(Cl)cc2)sc1C(=O)c1c[nH]c2ccccc12
3. C#CCN(N=O)C(=O)NCCCCC(NC(=O)OCc1ccccc1)C(=O)OCc1ccccc1 (stereo not given)
4. Cc1cn(CCC(N)C(=O)O)c(=O)[nH]c1=O (stereo not given)
5. CCC[CH2][Sn]([CH2]CCC)([CH2]CCC)[O]C(=O)C(OC(C)=O)c1ccccc1 (stereo not given)

Reply:
1. > 50 µM
2. 24.3 µM
3. > 100 µM
4. > 100 µM
5. 0.424 µM
